system: HOP-92; test: NCI tumour cell line growth inhibition, 48 h
Active and inactive are the calls of the source. Rule as the data show it: active = GI50 up to about 1.1 µM and inactive = higher.
GI50 values for the molecules below.

Worked examples, 7 molecules total:
{"MOLECULE": "CC(C)CCNC(=O)c1ccc(CNC(=O)/C=C/c2ccc3ccccc3c2)cc1", "ASSAY_RESULT": "> 100 µM (inactive)"}
{"MOLECULE": "O=C1C=C(N2CC2)C(=O)C=C1N1CC1", "ASSAY_RESULT": "0.44 µM (active)"}
{"MOLECULE": "COc1ccc2c(c1)[n+]([O-])c(-c1ccc(Cl)c(Cl)c1)c(N)[n+]2[O-]", "ASSAY_RESULT": "> 100 µM (inactive)"}
{"MOLECULE": "COC(=O)[C@@H]1C(=O)O[C@@H](c2ccc3c(c2)OCO3)[C@@H]1C(=O)OC.COC(=O)[C@H]1C(=O)O[C@@H](c2ccc3c(c2)OCO3)[C@@H]1C(=O)OC", "ASSAY_RESULT": "43.8 µM (inactive)"}
{"MOLECULE": "Cc1nc(O)nc(N(CCO)/N=C/c2ccc(Cl)cc2)c1C(=O)Nc1ccc(Cl)cc1", "ASSAY_RESULT": "> 100 µM (inactive)"}
{"MOLECULE": "N#CC12Cc3cc4c(cc3-c3cccc(c31)CCN2C(=O)c1ccccc1)OCO4 (stereo not drawn)", "ASSAY_RESULT": "22.8 µM (inactive)"}
{"MOLECULE": "Cc1c(N)nc([C@H](CC(N)=O)NC[C@H](N)C(N)=O)nc1C(=O)N[C@H](C(=O)N[C@H](C)[C@@H](O)[C@H](C)C(=O)N[C@H](C(=O)NCCc1nc(-c2nc(C(=O)NCCC[S+](C)C)cs2)cs1)[C@@H](C)O)C(OC1OC(CO)C(O)C(O)C1OC1OC(CO)C(O)C(OC(N)=O)C1O)c1c[nH]cn1 (stereo partly drawn)", "ASSAY_RESULT": "0.0841 µM (active)"}

In the following, a different molecule is considered.
response.value for O=C1C2=C(C3=NCCc4c[nH]c1c43)C1(C=C(Br)C(O)C(Br)=C1)CCN2 (stereo not drawn) (field: GI50) = 2.92 µM (inactive)

###

test system: HOP-62; assay: NCI tumour cell line growth inhibition, 48 h
Activity calls are given as the source filed them. No stated cut-off is given here; in the data, active = GI50 up to about 1.1 µM and inactive = higher.
API: response.call in t (active), f (inactive)

Entry COc1ccc(C(O)(c2ccccc2)c2nccc3ccccc23)cc1 (stereo unspecified) : call = ?
f

Entry CC(C)=CCC12Cc3ccc(O)cc3C(C(C)CN1)C2C (stereo unspecified) : call = ?
f

###

GI50 values for the compounds below.
test system: MDA-N; experiment: NCI tumour cell line growth inhibition, 48 h
Active and inactive are the calls of the source. Cut-off read from the data, not from the text of the source: active = GI50 up to about 1.1 µM and inactive = higher.

Worked examples, 8 compounds total:
{"COMPOUND": "CC(=O)NC1C(OCc2ccccc2)OC(CO)C(O)C1OC(C)C(=O)NC(C)C(=O)NC(CCC(=O)NCCCNc1c2ccccc2nc2cccc([N+](=O)[O-])c12)C(N)=O (centres undefined)", "GI50": "1.25 µM (inactive)"}
{"COMPOUND": "CC1(C)OCN(c2ccc(Cl)cc2)Cn2c1nc1ccccc12", "GI50": "3.05 µM (inactive)"}
{"COMPOUND": "O=C1c2ccccc2C(=O)N1CC(CN1C(=O)c2ccccc2C1=O)(C(=O)OCc1ccccc1)C(=O)OCc1ccccc1", "GI50": "> 100 µM (inactive)"}
{"COMPOUND": "Oc1c(C2=N[C@H]3CCCC[C@@H]3N2)ccc2ccccc12", "GI50": "> 100 µM (inactive)"}
{"COMPOUND": "O=C(NS(=O)(=O)Nc1ccc(Cl)cc1)OCc1ccc(Cl)cc1Cl", "GI50": "14.7 µM (inactive)"}
{"COMPOUND": "COc1cc2c[n+](C)c3c4cc5c(cc4ccc3c2cc1OC)OCO5 [NITIDINE CHLORIDE]", "GI50": "64 µM (inactive)"}
{"COMPOUND": "O=c1c(C(c2cnc3ccccc3c2)c2c(O)oc3ccccc3c2=O)c(O)oc2ccccc12", "GI50": "21.4 µM (inactive)"}
{"COMPOUND": "Cn1c(=O)c2nc[nH]c2n(C)c1=O", "GI50": "> 100 µM (inactive)"}

In the following, a different compound is considered.
Record CC1CC(=O)N(N(C)C)C2(C#N)C(=O)N=C(N)C12C#N (centres undefined) / MDA-N, GI50 recorded as > 100 µM (inactive)

###

test system: HT-29; assay: NCI tumour cell line growth inhibition, 48 h
Active and inactive are the calls of the source. Cut-off read from the data, not from the text of the source: active = GI50 up to about 1.1 µM and inactive = higher.
GI50 values for the compounds below.

{"COMPOUND": "CC1(C)CCCCCC(C)(CCCO)C1=O (stereo not given)", "GI50": "> 100 µM (inactive)"}
{"COMPOUND": "CC(C)C(=O)CC(c1ccc(Br)cc1)N1N=C(C(C)C)CC1c1ccc(Br)cc1 (stereo not given)", "GI50": "18.6 µM (inactive)"}
{"COMPOUND": "COC(=O)C1CC23C4=C(CCC41)CCC1CN4CC(C)C(CC(OC(C)=O)C12COC(C)=O)C43O (stereo not given)", "GI50": "> 100 µM (inactive)"}
{"COMPOUND": "C=CCC1(CN(C)C)CC/C(=C\\c2cc(OC)c(OC)c(OC)c2)C1=O (stereo not given)", "GI50": "20.5 µM (inactive)"}

In the following, a different compound is considered.
response.value for O=c1[nH]c(=O)c2c([nH]1)[nH]c1ccc(Br)cc12 (field: GI50) = > 100 µM (inactive)

###

system: HCC 2998; experiment: NCI tumour cell line growth inhibition, 48 h
Active and inactive are the calls of the source. Rule as the data show it: active = GI50 up to about 1.1 µM and inactive = higher. Bridge positions count the residues as written; N and C are the ends. Square brackets hold non-standard residues; d marks the D form. Peptide text beside a SMILES is read from it. * marks the point of attachment. Cya = N[CH](CS(=O)(=O)O)C(=O)O; X49 = CC(C)CCCCCCCC(O)CC(=O)*; GABA = NCCCC(=O)O
API: response.call in Yes (active), No (inactive)

Observe how each entry below is paired with its result.
{"COMPOUND": "CCCC(C(=O)OC)C1N/C(=N/C#N)N(Cc2ccccc2)C1=O (stereo not drawn)", "EXPERIMENTAL_SYSTEM": "HCC 2998", "ASSIGNED_CLASS": "No"}
{"COMPOUND": "CC(C)CCCCCCCC(O)CC(=O)NC(CS(=O)(=O)O)C(=O)NC(CC(C)C)C(=O)NCCCC(=O)NC(Cc1c[nH]cn1)C(=O)NC(C)C(=O)NC1C(=O)NC(C(C)O)C(=O)NC(Cc2c[nH]cn2)C(=O)NC(C)C(=O)NC(C(C)O)C(=O)OC1C (stereo not drawn) (X49-[Cya]L[GABA]HATTHAT; ester 6-C; configuration not given here)", "EXPERIMENTAL_SYSTEM": "HCC 2998", "ASSIGNED_CLASS": "No"}
{"COMPOUND": "COc1cc(C2c3cc4c(cc3OC(NN=C(C)C)C2C)OCO4)cc(OC)c1O (stereo not drawn)", "EXPERIMENTAL_SYSTEM": "HCC 2998", "ASSIGNED_CLASS": "No"}
{"COMPOUND": "CC1=C(C(=O)NNS(=O)(=O)c2ccc(C)cc2)CC(C(=O)NNS(=O)(=O)c2ccc(C)cc2)=C(C)N1", "EXPERIMENTAL_SYSTEM": "HCC 2998", "ASSIGNED_CLASS": "No"}
{"COMPOUND": "CCCCCCCCCCC[N+]1(Cc2ccccc2)CC2CCN(Cc3ccccc3)CC2C1 (stereo not drawn)", "EXPERIMENTAL_SYSTEM": "HCC 2998", "ASSIGNED_CLASS": "Yes"}

Entry CC(=O)OC1COC(n2c3ccccc3c3ccc4c5ccccc5[nH]c4c32)C(OC(C)=O)C1OC(C)=O (stereo not drawn) : call = ?
No

Entry CCCc1nc(Cl)c(Cl)c(Cl)n1 : call = ?
Yes

Entry CC[C@](O)(CC(=O)O[C@H]1C(=O)O[C@@H]2C[C@H]3C(C)=CC(=O)[C@@H](O)[C@]3(C)[C@H]3[C@@]4(O)OC[C@]32[C@@H]1[C@@H](C)[C@H]4O)C(C)C : call = ?
Yes

###

tested on: UACC-62; assay: NCI tumour cell line growth inhibition, 48 h
Active and inactive are the calls of the source. No stated cut-off is given here; in the data, active = GI50 up to about 1.1 µM and inactive = higher.
API: response.call in Yes for active, No for inactive

Observe how each entry below is paired with its result.
{"COMPOUND": "CN(C)/C=C/C=C(/C=N/S(=O)(=O)C(F)(F)F)C1C=CN(S(=O)(=O)C(F)(F)F)C=C1", "EXPERIMENTAL_SYSTEM": "UACC-62", "ASSIGNED_CLASS": "No"}
{"COMPOUND": "O=C(/C=C/c1ccc(Cl)cc1)c1ccc(Cl)s1", "EXPERIMENTAL_SYSTEM": "UACC-62", "ASSIGNED_CLASS": "No"}
{"COMPOUND": "O=C(/N=N/c1ccc(Cl)cc1Cl)NNc1ccc(Cl)cc1Cl", "EXPERIMENTAL_SYSTEM": "UACC-62", "ASSIGNED_CLASS": "No"}
{"COMPOUND": "CC[C@H](C)C1=C(O)[N@+]2([O-])Oc3ccc(-c4c(O)c(O)c(-c5ccc(OC(C)=O)cc5)c(OC(C)=O)c4OC(C)=O)cc3O[C@]2([C@@H](C)CC)C(=O)N1O", "EXPERIMENTAL_SYSTEM": "UACC-62", "ASSIGNED_CLASS": "No"}
{"COMPOUND": "O=C1c2ccccc2C2(O)Nc3c(ccc4ccccc34)C12O (stereo unspecified)", "EXPERIMENTAL_SYSTEM": "UACC-62", "ASSIGNED_CLASS": "No"}

Entry OC1OC(c2ccco2)C(F)(F)C(F)(F)C1(F)F (stereo unspecified) : call = ?
No

Entry Cn1c(-c2ccccc2)cc(-c2ccc3c(c2)OCO3)c1-c1ccsc1 : call = ?
No

Entry Cc1nc2ccc(NC3OCC(O)C(O)C3O)cc2c(=O)n1-c1ccccc1 (stereo unspecified) : call = ?
No

Entry CC1=C(C(=O)CC(=O)C(=O)Nc2cccc(C)c2C)Sc2ccccc2N1 : call = ?
No

Entry Cc1cc(S(=O)(=O)Nc2nc(N)n(-c3ccccc3)n2)c(S)cc1Cl : call = ?
No

Entry CCOC(=O)/C=C/[C@H](O)[C@@H](O)/C=C/C(=O)OCC : call = ?
No

Entry CCCCC1(OC(=O)CCC(=O)O)CCC2(CCC(C)C(C/C=C(C)/C=C/C(O)C(C)/C=C/C(=O)O)O2)OC1CC/C(C)=C/C(=O)O (stereo unspecified) : call = ?
Yes

Entry O=C(O)c1ccc2[nH]c(=O)oc2c1 : call = ?
No
